Source listed as ChEMBL document CHEMBL1158683.

# Test system: HT
# measurement-notes: Cytotoxicity against human HT cells
# Type: functional
# condition-description: read-out: ED50 (the source's name)
I'd be grateful if you could share measured EC50 for these entries.
For clarity, give the value followed by its unit.

See these solved cases before continuing.
| compound | EC50 |
| --- | --- |
| COc1c(O)cc2oc(-c3ccc(O)cc3)cc(=O)c2c1O [HISPIDULIN] | 10.1 µg/mL |
| C=C1C(=O)O[C@@H]2[C@@H]1C[C@@H](O)[C@H](C)[C@@](O)(C(=O)/C=C/C)[C@H]2OC(=O)/C(C)=C\C | 0.3 µg/mL |
| C=C1C(=O)O[C@@H]2[C@@H]1[C@H]1O[C@H]1[C@H](C)[C@@](O)(C(=O)/C=C/C)[C@H]2OC(=O)/C(C)=C\C | 0.16 µg/mL |
| C=C[C@@](C)(O)C[C@@H](O)/C=C(\C)CC/C=C(\C)COC(C)=O | 9.5 µg/mL |

Proceed to the following item.
Indicate its recorded EC50; the compound in question is C=C1C(=O)O[C@@H]2[C@@H]1CC[C@H](C)[C@@](O)(C(=O)/C=C/C)[C@H]2OC(=O)/C(C)=C\C 0.4 µg/mL
